- Test system: HCC1569;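 also: TDF denotes transformed human dermal fibroblasts of mesenchymal origin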
- protocol: cell number relative to DMSO (% of DMSO); higher = more cells (less growth inhibition / toxicity)
- conditionLabel: concentration: 10 µM; 24 h

{"compound": "N#CC(=Cc1ccc(O)c(O)c1)C(=O)OCC=Cc1ccccc1", "assayTarget": "HCC1569", "cell number": 91.9}
{"compound": "C[C@@H](Oc1cc(-c2cnn(C3CCNCC3)c2)cnc1N)c1c(Cl)ccc(F)c1Cl", "assayTarget": "HCC1569", "cell number": 59.6}
{"compound": "COc1cc(C2Oc3cc(C4Oc5cc(O)cc(O)c5C(=O)C4O)ccc3OC2CO)ccc1O (centres undefined) [Silybine]", "assayTarget": "HCC1569", "cell number": 100}
{"compound": "N#Cc1ccc(N2N=C3c4ccc(C(=O)O)cc4CCC3C2C2CCCC2)cc1Cl (centres undefined)", "assayTarget": "HCC1569", "cell number": 101}
{"compound": "CC(=O)OC1C(C)OC(Oc2c(-c3ccc(O)cc3)oc3cc(O)cc(O)c3c2=O)C(O)C1OC(C)=O (centres undefined) [RSK Inhibitor, SL0101]", "assayTarget": "HCC1569", "cell number": 97.7}
{"compound": "CCCCCCCCCCCCCCCCCCCCCCCC(=O)O [Tetracosanoic acid]", "assayTarget": "HCC1569", "cell number": 99.5}
{"compound": "Cl.Cl.NCCNc1ncc(C(N)=O)c(Nc2cccc(C(F)(F)F)c2)n1.O.O [Syk Inhibitor II]", "assayTarget": "HCC1569", "cell number": 82.1}
{"compound": "CCCCCC(O)C=CC1C(O)CC(=O)C1CC=CCCCC(=O)O (centres undefined) [Prostaglandin E2]", "assayTarget": "HCC1569", "cell number": 100}
{"compound": "COc1ccnc(CS(=O)c2nc3ccc(OC(F)F)cc3[nH]2)c1OC (centres undefined) [Pantoprazole]", "assayTarget": "HCC1569", "cell number": 100}
{"compound": "CC(CSC(=O)c1ccccc1)C(=O)N1CC(Sc2ccccc2)CC1C(=O)[O-].CC(CSC(=O)c1ccccc1)C(=O)N1CC(Sc2ccccc2)CC1C(=O)[O-].[Ca+2] (centres undefined)", "assayTarget": "HCC1569", "cell number": 106}
{"compound": "NS(=O)(=O)c1ccc(S(=O)(=O)Nc2cccc3c(Cl)c[nH]c23)cc1 [N~1~-(3-chloro-1H-indol-7-yl)-1,4-benzenedisulfonamide]", "assayTarget": "HCC1569", "cell number": 95.3}
{"compound": "O=c1cc(-c2ccccc2)oc2cc(O)ccc12 [7-Hydroxyflavone]", "assayTarget": "HCC1569", "cell number": 103}
{"compound": "CN(C)CCC(c1ccc(Cl)cc1)c1ccccn1 (centres undefined) [Chlorpheniramine]", "assayTarget": "HCC1569", "cell number": 100}
{"compound": "Cc1[nH]c2ccccc2c1CC(=O)N[C@@H](Cc1ccccc1)C(=O)N(C)c1ccccc1", "assayTarget": "HCC1569", "cell number": 100}
{"compound": "O=c1[nH][nH]c2nnc(-c3c(-c4ccccc4)nn4ccccc34)cc12 [ERK Inhibitor II, Negative control]", "assayTarget": "HCC1569", "cell number": 98.3}
{"compound": "NC(=S)NN=Cc1ncccc1N [3-amino-2-pyridinecarbaldehyde thiosemicarbazone]", "assayTarget": "HCC1569", "cell number": 77.2}
{"compound": "CCN1CCCC1CNC(=O)c1cc(S(N)(=O)=O)ccc1OC [(S)-(-)-Sulpiride]", "assayTarget": "HCC1569", "cell number": 99.3}
{"compound": "COc1ccccc1N1CCN(CCN2C(=O)CC3(CCCC3)CC2=O)CC1.Cl.Cl [BMY 7378 dihydrochloride]", "assayTarget": "HCC1569", "cell number": 98.3}
{"compound": "C[n+]1cccc(C(=O)O)c1.[Cl-]", "assayTarget": "HCC1569", "cell number": 99.8}
{"compound": "CCC(C)C(CC)C(N)=O (centres undefined) [2-ethyl-3-methylpentanamide]", "assayTarget": "HCC1569", "cell number": 103}
{"compound": "COc1cc2ncnc(Nc3ccc(O)c(Br)c3)c2cc1OC [JAK3 Inhibitor II]", "assayTarget": "HCC1569", "cell number": 88.7}
{"compound": "CCCCCC(=O)C=CC=CCC=CCC=CCCCC(=O)O [15-Ketoeicosatetraenoic acid]", "assayTarget": "HCC1569", "cell number": 99.5}
{"compound": "COC(=O)Nc1nc2ccc(C(=O)c3ccc(F)cc3)cc2[nH]1 [Flubendazole]", "assayTarget": "HCC1569", "cell number": 65.9}
{"compound": "COC(=O)CCc1ccc(OCC(O)CNC(C)C)cc1 (centres undefined) [Esmolol]", "assayTarget": "HCC1569", "cell number": 100}
{"compound": "COc1ccc(C(=O)Nc2sc3c(c2C(N)=O)CCCC3)cc1OC", "assayTarget": "HCC1569", "cell number": 98.8}
{"compound": "COc1ccc(/C=C\\c2cc(OC)c(OC)c(OC)c2)cc1O [2-methoxy-5-[(Z)-2-(3,4,5-trimethoxyphenyl)ethenyl]phenol]", "assayTarget": "HCC1569", "cell number": 61.6}
{"compound": "O=C1N=c2ccccc2=C1c1[nH]c2ccccc2c1NOCCC(O)CO (centres undefined) [Indirubin Derivative E804]", "assayTarget": "HCC1569", "cell number": 60.8}
{"compound": "CCCCCCCCCCCCCC=CC(O)C(N)CO (centres undefined) [Sphingosine]", "assayTarget": "HCC1569", "cell number": 103}
{"compound": "NC(=O)Nc1sc(-c2ccc(F)cc2)cc1C(N)=O [IKK-2 Inhibitor IV]", "assayTarget": "HCC1569", "cell number": 80.1}
{"compound": "CC1COc2c(C3(N)CC3)c(F)cc3c(=O)c(C(=O)O)cn1c23 (centres undefined) [Pazufloxacin]", "assayTarget": "HCC1569", "cell number": 104}
{"compound": "CCCCCCCCCCCC1=C(O)C(=O)C=C(O)C1=O [Embelin]", "assayTarget": "HCC1569", "cell number": 98.8}
{"compound": "COc1cc2c(cc1OC)-c1cc(=Nc3c(C)cc(C)cc3C)n(C)c(=O)n1CC2.Cl [Trequinsin.HCl]", "assayTarget": "HCC1569", "cell number": 102}
{"compound": "CCCCNc1ncc(C(=O)NCc2ccc(-n3ccnc3)cc2)c(NC2CCC(O)CC2)n1 (centres undefined)", "assayTarget": "HCC1569", "cell number": 65.8}
{"compound": "CCCCCCCCCC(=O)NC(CN1CCOCC1)C(O)c1ccccc1.Cl (racemic)", "assayTarget": "HCC1569", "cell number": 94}
